Target: β2-adrenoceptor (Rattus norvegicus, UniProt P10608)
Construct: positive chronotropic and depressor effects in the anesthetized rats; from tissue; host or cells: whole living rat (blood pressure response to isadrin); endogenous receptor
Sequence (P10608 whole entry): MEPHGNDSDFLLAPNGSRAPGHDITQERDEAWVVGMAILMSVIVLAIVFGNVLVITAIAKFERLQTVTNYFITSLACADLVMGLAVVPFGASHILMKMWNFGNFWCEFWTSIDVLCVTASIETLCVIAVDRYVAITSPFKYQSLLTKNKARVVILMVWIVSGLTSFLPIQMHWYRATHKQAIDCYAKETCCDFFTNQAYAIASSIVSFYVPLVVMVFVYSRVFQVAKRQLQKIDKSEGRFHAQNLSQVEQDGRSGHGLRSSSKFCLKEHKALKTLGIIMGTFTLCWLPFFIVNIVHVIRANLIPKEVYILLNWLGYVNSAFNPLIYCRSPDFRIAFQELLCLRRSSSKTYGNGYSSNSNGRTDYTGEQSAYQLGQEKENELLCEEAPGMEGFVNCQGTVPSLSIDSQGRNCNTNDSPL
Test: Inhibition of isadrin's depressor effect, i.v., anesthetized rats
Type: in vivo
Conditions: rat, iv, read-out: Dosage inhibiting isadrin's depressor effect by 50%, ED50
assay_readout: ED50 (mg/kg)
Enter your answer as a number in mg/kg; do not include the unit.

Before answering, review these 3 worked examples.
molecule: CC(C)NCC(O)COc1cccc2[nH]ccc12 (stereo not shown) [Pindolol, pindolol, reference compound]
result_unit: mg/kg
value_observed: 0.02
//
molecule: Cc1noc(COc2ccccc2OCC(O)CNC(C)(C)C)n1.Cl (stereo not shown)
result_unit: mg/kg
value_observed: 0.008
//
molecule: CC(CCc1ccccc1)NCC(O)c1ccc(O)c(C(N)=O)c1 (stereo not shown)
result_unit: mg/kg
value_observed: 3.3

Now consider the entry below.
ED50 reading for C=CCOc1ccccc1OCC(O)CNC(C)C (stereo not shown) : 0.055

// provenance: patent US5326774A
